Species: Homo sapiens
assay protocol: Selectivity ratio of IC50 for human FP receptor to IC50 for human EP3 receptor
Mark NOT MET for Ratio IC50 values under 600, and MET for everything at or above.

Lookup: Identify whether the reported Ratio IC50 of the following molecule is 600 or greater: O=C(COc1cccc2[nH]cc(Sc3nc4ccccc4s3)c12)NS(=O)(=O)c1cc(Cl)c(Cl)s1
Found: NOT MET

Lookup: Subsequent entry: O=C(COc1cccc2[nH]cc(S(=O)(=O)c3ccc(Cl)c(Cl)c3)c12)NS(=O)(=O)c1cc(Cl)c(Cl)s1
Found: NOT MET

Lookup: Subsequent entry: O=C(COc1cccc2[nH]cc(Sc3ccc(Cl)cc3Cl)c12)NS(=O)(=O)c1cc(Cl)c(Cl)s1
Found: MET

Lookup: Subsequent entry: O=C(COc1cccc2[nH]cc(Sc3ccc4ccccc4c3)c12)NS(=O)(=O)c1cccc(Cl)c1
Found: MET

Lookup: Subsequent entry: Cc1ccc(Sc2c[nH]c3cccc(OCC(=O)NS(=O)(=O)c4cc(Cl)c(Cl)s4)c23)c(C)c1
Found: NOT MET

----------
Organism: Homo sapiens
assay protocol: Selectivity ratio of IC50 for human EP1 receptor to IC50 for human EP3 receptor
Below: a set of entries, each annotated with reported Ratio IC50.
Field format: numeric only.

Lookup: Please report the recorded Ratio IC50 for O=C(COc1cccc2[nH]cc(S(=O)(=O)c3ccc(Cl)c(Cl)c3)c12)NS(=O)(=O)c1cc(Cl)c(Cl)s1 .
Found: 5190

Lookup: Subsequent entry: O=C(COc1cccc2[nH]cc(Sc3ccc(Cl)c(Cl)c3)c12)NS(=O)(=O)c1cc(Cl)c(Cl)s1
Found: 10800

Lookup: Subsequent entry: O=C(COc1cccc2[nH]cc(Sc3ccc4ccccc4c3)c12)NS(=O)(=O)c1cccc(Cl)c1
Found: 12300

Lookup: Subsequent entry: Cc1ccc(Sc2c[nH]c3cccc(OCC(=O)NS(=O)(=O)c4cc(Cl)c(Cl)s4)c23)c(C)c1
Found: 13100

Lookup: Subsequent entry: O=C(COc1cccc2[nH]cc(Sc3ccc(Cl)cc3Cl)c12)NS(=O)(=O)c1cc(Cl)c(Cl)s1
Found: 3520

----------
assay protocol: Metabolic stability in human liver microsomes at 5 uM after 30 mins
Type: ADME, Microsome
measurement parameters: read-out: Activity
assay endpoint: remaining at 0.5 h, 5 µM

Observe how each entry below is paired with its result.
O=C(COc1cccc2[nH]cc(S(=O)(=O)c3ccc(Cl)cc3)c12)NS(=O)(=O)c1cc(Cl)c(Cl)s1	75%
O=C(COc1cccc2[nH]cc(Sc3ccc(Cl)c(Cl)c3)c12)NS(=O)(=O)c1cc(Cl)c(Cl)s1	46%

Lookup: Please report the recorded remaining at 0.5 h, 5 µM for O=C(COc1cccc2[nH]cc(Sc3ccc(Cl)cc3Cl)c12)NS(=O)(=O)c1cc(Cl)c(Cl)s1 .
Found: 37%

Lookup: Subsequent entry: O=C(COc1cccc2[nH]cc(S(=O)(=O)c3ccc(Cl)c(Cl)c3)c12)NS(=O)(=O)c1cc(Cl)c(Cl)s1
Found: 69.7%

----------
assay target: Prostaglandin E2 receptor EP3 subtype (Mus musculus, UniProt P30557)
Sequence (P30557 whole entry): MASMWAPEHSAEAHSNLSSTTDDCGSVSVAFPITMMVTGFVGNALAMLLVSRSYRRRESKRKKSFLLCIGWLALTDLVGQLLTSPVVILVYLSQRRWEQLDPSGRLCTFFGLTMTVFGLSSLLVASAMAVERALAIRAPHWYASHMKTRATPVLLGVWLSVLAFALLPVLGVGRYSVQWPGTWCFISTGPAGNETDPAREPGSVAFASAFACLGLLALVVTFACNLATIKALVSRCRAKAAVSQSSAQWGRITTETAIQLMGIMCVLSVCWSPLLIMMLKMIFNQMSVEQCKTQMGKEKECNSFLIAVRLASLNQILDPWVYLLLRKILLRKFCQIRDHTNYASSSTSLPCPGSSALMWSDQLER
assay endpoint: IC50 (µM)
Give your result in µM as a bare value.

Lookup: Please report the recorded IC50 for O=C(COc1cccc2[nH]cc(Sc3ccc(Cl)c(Cl)c3)c12)NS(=O)(=O)c1cc(Cl)c(Cl)s1 .
Found: 0.0155

----------
assay target: Prostaglandin E2 receptor EP3 subtype (Homo sapiens, UniProt P43115)
assay protocol: Displacement of [3H]PGE2 from human EP3 receptor in presence of 10% human serum
assay endpoint: fold shift
Field format: numeric only.

O=C(COc1cccc2[nH]cc(S(=O)(=O)c3ccc(F)cc3Cl)c12)NS(=O)(=O)c1cc(Cl)c(Cl)s1	10.7
NC(=O)Cc1ccc(S(=O)(=O)c2c[nH]c3cccc(OCC(=O)NS(=O)(=O)c4cc(Cl)c(Cl)s4)c23)cc1	5

Lookup: Lab note: need fold shift for COc1ccc(Sc2c[nH]c3cccc(OCC(=O)NS(=O)(=O)c4cc(Cl)c(Cl)s4)c23)cc1 on Prostaglandin E2 receptor EP3 subtype (Homo sapiens, UniProt P43115), anyone have it?
Found: 22.6

Lookup: Subsequent entry: O=C(COc1cccc2[nH]cc(Sc3nc4ccccc4s3)c12)NS(=O)(=O)c1cc(Cl)c(Cl)s1
Found: 9.8

----------
assay target: Prostaglandin E2 receptor EP3 subtype (Homo sapiens, UniProt P43115)
Sequence (P43115 whole entry): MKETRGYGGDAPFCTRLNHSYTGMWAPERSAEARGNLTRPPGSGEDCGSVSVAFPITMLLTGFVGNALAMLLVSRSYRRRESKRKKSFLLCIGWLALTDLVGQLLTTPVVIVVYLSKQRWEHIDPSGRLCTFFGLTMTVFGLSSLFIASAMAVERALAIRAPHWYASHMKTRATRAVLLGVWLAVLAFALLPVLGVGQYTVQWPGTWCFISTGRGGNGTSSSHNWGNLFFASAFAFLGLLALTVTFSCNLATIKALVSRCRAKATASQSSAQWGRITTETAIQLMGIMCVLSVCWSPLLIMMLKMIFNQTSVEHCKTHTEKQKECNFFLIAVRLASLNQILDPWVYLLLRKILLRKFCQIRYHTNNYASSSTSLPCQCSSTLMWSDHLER
assay protocol: Displacement of [3H]PGE2 from human EP3 receptor in presence of 10% human serum
assay endpoint: fold shift
Field format: numeric only.

Observe how each entry below is paired with its result.
Cn1c(Sc2c[nH]c3cccc(OCC(=O)NS(=O)(=O)c4cc(Cl)c(Cl)s4)c23)nc2ccccc21	10.5
Cc1ccc(S(=O)(=O)c2c[nH]c3cccc(OCC(=O)NS(=O)(=O)c4cc(Cl)c(Cl)s4)c23)c(C)c1	33.2

Lookup: Please report the recorded fold shift for O=C(COc1cccc2[nH]cc(Sc3ccccc3Cl)c12)NS(=O)(=O)c1cc(Cl)c(Cl)s1 .
Found: 5.8

Lookup: Subsequent entry: Cn1nnnc1Sc1c[nH]c2cccc(OCC(=O)NS(=O)(=O)c3cc(Cl)c(Cl)s3)c12
Found: 58.3

Data origin: ChEMBL document CHEMBL1139279
